Values from patent US20240368295A1

# TEST_SYSTEM: T1, BCMA on BCMA-positive NCI-H929, ARP-1 and U266B1 cells (human, UniProt Q02223 1-184)
# T1 sequence: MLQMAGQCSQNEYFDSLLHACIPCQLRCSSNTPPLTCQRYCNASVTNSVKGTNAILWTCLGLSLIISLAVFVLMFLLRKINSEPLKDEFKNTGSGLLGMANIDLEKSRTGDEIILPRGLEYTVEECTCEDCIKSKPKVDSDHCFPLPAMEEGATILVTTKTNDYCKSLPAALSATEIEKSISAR
# MEASUREMENT_PROTOCOL: cell-based or functional assay
The reader will find reported U266B1, SC239-conjugated 2° antibody cell killing, EC50 values listed item by item below.
Answer by giving the amount and then stating its unit.

- BINDER: "11D6 (antibody, V domains shown, chicken HybriFree-derived antibody; also called Antibody 32) VH: AVTLDESGGGLQTPGGTLSLVCKASGFTFSSFNMFWVRQAPGEGLEWVAYIRNDGRSTSYGPAVKGRATISRDNGQSTVRLQLNNLRAEDTGTYFCAKTTCVGSGGCIDTWGHGTEVIVSS VL: ALTQPSSVSANPGETVEITCSGGNSDYGWFQQKSPGSAPVTVIYRNNQRPSDIPSRFSGSGSGSTNTLTITGVQAEDEAIYYCGNVDFTDDVFGAGTTLTVL"
  ASSAY_VALUE: "1.1 nM"

Q: Recorded U266B1, SC239-conjugated 2° antibody cell killing, EC50 of 9A8 (antibody, V domains shown, chicken HybriFree-derived antibody; also called Antibody 30) VH: AVTLDESGGGLQTPGGTLSLVCKASGFTFSSFNMFWVRQAPGKGLEWVAYIRNDGNSASYGPAVKGRATISRDNGQSTVRLQLNNLRAEDTATYYCAKTTCIGSGGCIDTWGHGTEVIVSS VL: ALTQPSSVSANPGETVKITCSGGSSDYGWFQQKSPGSAPVTVIYSNNQRPSGIPSRFSGSKSGSTGTLTITGVQAEDEAIYYCANVDYTDDVFGAGTTLTVL , please.
Result: 2.3 nM
